- assayedTarget: T1, RBFOX1 RRM (Homo sapiens, UniProt Q9NWB1 109-208)
- T1 sequence: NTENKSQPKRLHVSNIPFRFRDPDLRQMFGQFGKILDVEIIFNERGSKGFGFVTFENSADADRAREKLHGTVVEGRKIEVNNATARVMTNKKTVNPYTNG
- methodDescription: EMSA; HiTS-Eq, 1 nM pool, 10 min; buffer printed only for the single-RNA assays: 10 mM Tris pH 7.5, 150 mM NaCl, 3.4 mM EDTA, 0.001% NP-40, 30 C
- conditionSet: tags: His6 N-terminal (pET28a); label: 5' 32P
Over roughly 16,000 sequences, “ka relative to ugcaugu” has its median near 0.0091; the highest 2% begin near 0.032. The entries come from a sample that favours the highest values as a whole.
parameter: binding signal

{"binder": "CGGGCCG (DNA:RNA) RNA: GGGAGACCGGAAUUCAGAUUGUCCCGGGCCGUUAAAUCCCGUCGUAGCCACCA DNA 1: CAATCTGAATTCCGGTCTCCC DNA 2: TGGTGGCTACGACGGGATT", "binding signal": "0.0351 KA relative to UGCAUGU"}
{"binder": "UGCGGAA (DNA:RNA) RNA: GGGAGACCGGAAUUCAGAUUGUCCUGCGGAAUUAAAUCCCGUCGUAGCCACCA DNA 1: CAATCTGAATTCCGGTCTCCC DNA 2: TGGTGGCTACGACGGGATT", "binding signal": "0.0165 KA relative to UGCAUGU"}
{"binder": "CGGCCUG (DNA:RNA) RNA: GGGAGACCGGAAUUCAGAUUGUCCCGGCCUGUUAAAUCCCGUCGUAGCCACCA DNA 1: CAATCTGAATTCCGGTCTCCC DNA 2: TGGTGGCTACGACGGGATT", "binding signal": "0.0257 KA relative to UGCAUGU"}

Now look at this one.
*Q* Give the reported binding signal for this binder. GGGGCCG (DNA:RNA) RNA: GGGAGACCGGAAUUCAGAUUGUCCGGGGCCGUUAAAUCCCGUCGUAGCCACCA DNA 1: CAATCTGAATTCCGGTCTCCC DNA 2: TGGTGGCTACGACGGGATT
*A* 0.027 KA relative to UGCAUGU
